- System: 883617-216-R-J1-PDC tumor spheroids, viability;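 further: spheroids exposed to agents for 7 days before the viability read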
- Assay Text: Anticancer human tumor 883617-216-R-J1-PDC patient-derived bladder carcinoma cell line growth inhibition [PI3K]; active means viability on the fitted dose curve at most 10% of control; inactive means the rest
- Condition Details: second compound 1 µM; first compound 0.1 µM; spheroids with HUVEC and MSC
- Text: Combinatorial screen of targeted agents with the PI3K inhibitors inavolisib, alpelisib, duvelisib, and copanlisib in multi-cell type tumor spheroids A high-throughput screen of multi-cell type tumor spheroids was designed to identify active combinations of targeted small molecules and PI3K pathway inhibitors. […] Compounds. […] If the clinical Cmax for an agent had not been determined, the highest concentration tested was 10 microM. […]
Would you mind answering with one of these outcomes? 1 for active, 0 for inactive

>  <Compound>
C[C@@H](NC(=O)c1ncnc(N)c1Cl)c1ncc(C(=O)Nc2cc(C(F)(F)F)c(Cl)cn2)s1 + CC(Nc1ccc2c(c1)OCCn1cc(N3C(=O)OCC3C(F)F)nc1-2)C(N)=O

>  <Study Target>
883617-216-R-J1-PDC tumor spheroids, viability;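 further: spheroids exposed to agents for 7 days before the viability read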

>  <Qualitative Label>
0

$$$$

Record lookup: outcome of this test for CCN1CCN(Cc2ccc(Nc3ncc(F)c(-c4cc(F)c5nc(C)n(C(C)C)c5c4)n3)nc2)CC1 + CC(Nc1ccc2c(c1)OCCn1cc(N3C(=O)OCC3C(F)F)nc1-2)C(N)=O ?
0

Now the compound C[C@@H](NC(=O)c1ncnc(N)c1Cl)c1ncc(C(=O)Nc2cc(C(F)(F)F)c(Cl)cn2)s1 + CC(Nc1ncnc2nc[nH]c12)c1cc2cccc(Cl)c2c(=O)n1-c1ccccc1
0

Proceed to C#Cc1c(F)ccc2cc(O)cc(-c3ncc4c(N5CC6CCC(C5)N6)nc(OCC56CCCN5CC(F)C6)nc4c3F)c12 (stereo unspecified) + CC(Nc1ccc2c(c1)OCCn1cc(N3C(=O)OCC3C(F)F)nc1-2)C(N)=O
0

For CCN1CCN(Cc2ccc(Nc3ncc(F)c(-c4cc(F)c5nc(C)n(C(C)C)c5c4)n3)nc2)CC1 + Cc1nc(NC(=O)N2CCCC2C(N)=O)sc1-c1ccnc(C(C)(C)C(F)(F)F)c1 then?
0

Also CC(Cn1ccc(-c2ccc(C#N)c(Cl)c2)n1)NC(=O)c1cc(C(C)O)[nH]n1 (stereo unspecified) + CC(Nc1ncnc2nc[nH]c12)c1cc2cccc(Cl)c2c(=O)n1-c1ccccc1 , if possible.
0

Try Cn1ncc(Cl)c1-c1cc(C(=O)NC(CN)Cc2cccc(F)c2)sc1Cl (stereo unspecified) + CC(Nc1ncnc2nc[nH]c12)c1cc2cccc(Cl)c2c(=O)n1-c1ccccc1 next.
0

Moving on to CC(=O)c1c(C)c2cnc(Nc3ccc(N4CCNCC4)cn3)nc2n(C2CCCC2)c1=O + CC(Nc1ncnc2nc[nH]c12)c1cc2cccc(Cl)c2c(=O)n1-c1ccccc1
0

Now the compound CCN1CCN(Cc2ccc(Nc3ncc(F)c(-c4cc(F)c5nc(C)n(C(C)C)c5c4)n3)nc2)CC1 + CC(Nc1ncnc2nc[nH]c12)c1cc2cccc(Cl)c2c(=O)n1-c1ccccc1
0

Could you do the same for Cn1ncnc1[C@H]1c2n[nH]c(=O)c3cc(F)cc(c23)N[C@@H]1c1ccc(F)cc1 + COc1c(OCCCN2CCOCC2)ccc2c3n(c(=NC(=O)c4cnc(N)nc4)nc12)CCN3 , please?
1

Also CC(C)NCC(C(=O)N1CCN(c2ncnc3c2C(C)CC3O)CC1)c1ccc(Cl)cc1 (stereo unspecified) + Cc1nc(NC(=O)N2CCCC2C(N)=O)sc1-c1ccnc(C(C)(C)C(F)(F)F)c1 , if possible.
0
